Overview of recorded response vs control in vivo at 20 mg/kg for various compounds
Test system: rats
EXPERIMENTAL_DETAILS: Diuretic and saluretic activity (urine volume and electrolyte excretion over 6 h), technique of Lipschits et al.
Type: in vivo
CONDITION: rat, 20 mg/kg po, (N) = not statistically significant vs control, read-out: K excretion, treated group/control group ratio
Procedure: The synthesized compounds were, therefore, subjected a pharmacological screening to evaluate a possible diuretic and salt excreting activity. Thus, an acute dose of each of the products of synthesis (20 or 25 mg/kg) was administered to rats and the amount of urine and the excretion of electrolytes was measured, following the technique described by Lipschits et al., with certain modifications (J. Pharmacol. Exp.Ther. 1943-79; 97-110). […]
EXPERIMENTAL_ENDPOINT: response vs control in vivo at 20 mg/kg (%)

> print(dat)
                                    compound                    experimental.endpoint  result
 1         CCCN1c2nc(C)c(C)nc2C(N)=NS1(=O)=O  response vs control in vivo at 20 mg/kg     197
 2        CCc1nc2c(nc1C)C(NC)=NS(=O)(=O)N2CC  response vs control in vivo at 20 mg/kg     155
 3         CCc1nc2c(nc1C)N(CC)S(=O)(=O)N=C2N  response vs control in vivo at 20 mg/kg      91
 4        CCCc1nc2c(nc1C)C(N)=NS(=O)(=O)N2CC  response vs control in vivo at 20 mg/kg     123
 5        CCCN1c2nc(CC)c(C)nc2C(N)=NS1(=O)=O  response vs control in vivo at 20 mg/kg     172
 6  Nc1nc(N)c2nc(-c3ccccc3)c(N)nc2n1 [Triamterene, reference compound]  response vs control in vivo at 20 mg/kg      34
 7  CCN1c2nc(C)c(-c3ccccc3)nc2C(N)=NS1(=O)=O  response vs control in vivo at 20 mg/kg      85
 8     CCN1c2nc(-c3ccccc3)cnc2C(N)=NS1(=O)=O  response vs control in vivo at 20 mg/kg     140
 9        CCc1nc2c(nc1CC)N(CC)S(=O)(=O)N=C2N  response vs control in vivo at 20 mg/kg     127
10          CCc1nc2c(nc1C)C(N)=NS(=O)(=O)N2C  response vs control in vivo at 20 mg/kg     177

* * *

EXPERIMENTAL_DETAILS: Mortality rate in the mouse after a single oral dose of 1600 mg/kg
CONDITION: in vivo, single oral dose 1600 mg/kg
Experimental: Likewise, to complete the superficial pharmacological profile, a check was made of the mortality rate in the mouse after oral administration of a single dose of 1600 mg/kg of each of the synthesized compounds (See Table 1).
Overview of recorded mortality for various molecules
EXPERIMENTAL_ENDPOINT: mortality (%)

> print(dat)
                                   molecule  result
1  Cc1nc2c(nc1C)N(CCN1CCOCC1)S(=O)(=O)N=C2N [1-(2-morpholinoethyl)-6,7-dimethyl]      85
2  CCc1nc2c(nc1C)C(N)=NS(=O)(=O)N2CC [1,7-diethyl-6-methyl]    37.5
3  CCN1c2nc(C(F)(F)F)c(C(F)(F)F)nc2C(N)=NS1(=O)=O [1-ethyl-6,7-bis(trifluoromethyl)]     100
4  CCCN1c2nc(CC)c(C)nc2C(N)=NS1(=O)=O [1-ethyl-6-methyl-1-propyl]      40
